Reference source: patent US4505905A

Effective Combination Concentrations: Units/mL Benzyl Penicillin values, listed per item
test system: penicillin-resistant Staphylococcus aureus strain; assay: Antibacterial activity in combination with benzyl penicillin, modified microdilution technique; settings: Table 4; concentration of benzyl penicillin combined with the compound
Supply the numeric figure in Units/mL, leaving out any unit text.

CC(=O)NCC[S+]([O-])C1=C(C(=O)OC(c2ccccc2)c2ccccc2)[C@H]2C(=O)[C@H]([C@H](C)O)[C@H]2C1 (relative stereo)    20

// query Consider the molecule CC(=O)NCCSC1=C(C(=O)OC(c2ccccc2)c2ccccc2)C2C(=O)CC2C1 (stereo not shown) and give its recorded Effective Combination Concentrations: Units/mL Benzyl Penicillin.
// result 20

// query Consider the molecule O=C(OC(c1ccccc1)c1ccccc1)C1=CCC2CC(=O)C12 (stereo not shown) and give its recorded Effective Combination Concentrations: Units/mL Benzyl Penicillin.
// result 10

// query Consider the molecule CC(=O)NCC[S+]([O-])C1=C(C(=O)OCc2cccc3ccccc23)C2C(=O)CC2C1 (stereo not shown) and give its recorded Effective Combination Concentrations: Units/mL Benzyl Penicillin.
// result 20

// query Consider the molecule CC(=O)NCCSC1=C(C(=O)OC(c2ccccc2)c2ccccc2)C2C(=O)[C@H]([C@H](C)O)[C@H]2C1 (relative stereo) and give its recorded Effective Combination Concentrations: Units/mL Benzyl Penicillin.
// result 10

// query Consider the molecule O=C(OC(c1ccccc1)c1ccccc1)C1=C([S+]([O-])CCNC(=O)C(c2ccccc2)c2ccccc2)CC2CC(=O)C12 (stereo not shown) and give its recorded Effective Combination Concentrations: Units/mL Benzyl Penicillin.
// result 20

// query Consider the molecule O=C(OC(c1ccccc1)c1ccccc1)C1=C(S(=O)(=O)c2ccc([N+](=O)[O-])cc2)CC2CC(=O)C12 (stereo not shown) and give its recorded Effective Combination Concentrations: Units/mL Benzyl Penicillin.
// result 1.25
